molecular target: T1, blood platelet receptor glycoprotein Ib-IX-V complex (GPIb) (human, UniProt P07359 17-652; P13224 26-206; P14770 17-177; P40197 17-560); assay: inhibition of static adhesion of human platelets to coated vWF-A1; grade B = IC50 between 1 µM and 10 µM
T1 construct: whole, on cells; also called GPIb complex; GPIb receptor
T1 sequence (P07359 17-652, chain 1 of 4): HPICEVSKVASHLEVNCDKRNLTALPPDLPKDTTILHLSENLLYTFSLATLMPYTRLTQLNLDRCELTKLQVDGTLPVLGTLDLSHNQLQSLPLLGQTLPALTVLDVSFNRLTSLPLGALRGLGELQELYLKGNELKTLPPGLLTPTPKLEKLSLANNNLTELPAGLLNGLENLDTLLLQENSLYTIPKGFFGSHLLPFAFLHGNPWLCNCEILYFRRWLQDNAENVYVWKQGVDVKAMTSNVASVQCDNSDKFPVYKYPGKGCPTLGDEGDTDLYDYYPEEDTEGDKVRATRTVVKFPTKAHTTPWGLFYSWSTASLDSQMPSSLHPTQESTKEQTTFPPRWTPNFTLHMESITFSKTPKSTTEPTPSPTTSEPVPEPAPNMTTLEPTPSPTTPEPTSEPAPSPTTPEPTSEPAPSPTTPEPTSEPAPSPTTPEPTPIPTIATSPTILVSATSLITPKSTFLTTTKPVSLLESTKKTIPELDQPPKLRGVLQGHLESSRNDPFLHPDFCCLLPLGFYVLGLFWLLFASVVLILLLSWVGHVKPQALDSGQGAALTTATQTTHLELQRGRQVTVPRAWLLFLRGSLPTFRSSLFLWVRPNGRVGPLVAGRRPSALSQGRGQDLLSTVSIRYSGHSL
T1 sequence (P13224 26-206, chain 2 of 4): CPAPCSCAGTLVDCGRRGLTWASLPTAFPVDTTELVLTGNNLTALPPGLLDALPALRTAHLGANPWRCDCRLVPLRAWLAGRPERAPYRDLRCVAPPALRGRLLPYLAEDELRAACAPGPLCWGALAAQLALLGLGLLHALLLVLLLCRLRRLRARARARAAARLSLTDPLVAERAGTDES
T1 sequence (P14770 17-177, chain 3 of 4): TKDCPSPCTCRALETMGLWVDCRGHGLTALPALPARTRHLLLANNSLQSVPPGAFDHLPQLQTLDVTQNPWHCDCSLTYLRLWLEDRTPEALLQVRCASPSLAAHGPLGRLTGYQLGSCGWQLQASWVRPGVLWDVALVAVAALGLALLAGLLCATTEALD
T1 sequence (P40197 17-560, chain 4 of 4): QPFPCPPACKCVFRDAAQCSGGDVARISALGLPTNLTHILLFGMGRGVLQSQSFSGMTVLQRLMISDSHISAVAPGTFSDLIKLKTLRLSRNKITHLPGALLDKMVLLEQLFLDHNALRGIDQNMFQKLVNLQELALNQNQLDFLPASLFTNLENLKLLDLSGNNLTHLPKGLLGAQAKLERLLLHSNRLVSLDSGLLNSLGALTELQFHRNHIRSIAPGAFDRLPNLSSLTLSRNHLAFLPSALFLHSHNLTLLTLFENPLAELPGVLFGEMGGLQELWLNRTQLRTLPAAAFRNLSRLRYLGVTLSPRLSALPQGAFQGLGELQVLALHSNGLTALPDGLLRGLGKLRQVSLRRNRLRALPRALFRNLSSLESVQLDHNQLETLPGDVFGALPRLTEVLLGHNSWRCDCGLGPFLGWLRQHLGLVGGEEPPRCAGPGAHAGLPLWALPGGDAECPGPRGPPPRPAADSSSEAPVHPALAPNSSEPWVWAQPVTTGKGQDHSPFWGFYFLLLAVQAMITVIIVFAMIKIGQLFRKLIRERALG
pIC50: −log10 of the molar value. Starred links: 1 amine or outer side, 2 acyl side, 3 side chain; linkers in the order of their positions; H or OH if unused. Non-standard residues stand in square brackets, D forms with d. 4‑aminomethylphenylacetic acid = (4-aminomethyl-phenyl)-acetic acid ring linker, O=C(Cc1ccc(CN[*:1])cc1)[*:2]; Chg = N[C@H](C(=O)O)C1CCCCC1; Ahp = NCCCCCCC(=O)O
Please go through the items and note down their pIC50.

Ask: Look at this binder and give its reported pIC50. cyclo(LHNL[Ahp]TER[Chg]A) (SMILES CC(C)C[C@@H]1NC(=O)[C@H](C)NC(=O)[C@H](C2CCCCC2)NC(=O)[C@H](CCCNC(=N)N)NC(=O)[C@H](CCC(=O)O)NC(=O)[C@H]([C@@H](C)O)NC(=O)CCCCCCNC(=O)[C@H](CC(C)C)NC(=O)[C@H](CC(N)=O)NC(=O)[C@H](Cc2c[nH]cn2)NC1=O) [Cyclo[Leu-His-Asn-Leu-NH-(CH2)6-CO-Thr-Glu-Arg-Chg-Ala]]
Reply: 5.00 to 6.00

Ask: Look at this binder and give its reported pIC50. cyclo(LHNL[4‑aminomethylphenylacetic acid]TERMA) (SMILES CSCC[C@@H]1NC(=O)[C@H](CCCNC(=N)N)NC(=O)[C@H](CCC(=O)O)NC(=O)[C@H]([C@@H](C)O)NC(=O)Cc2ccc(cc2)CNC(=O)[C@H](CC(C)C)NC(=O)[C@H](CC(N)=O)NC(=O)[C@H](Cc2c[nH]cn2)NC(=O)[C@H](CC(C)C)NC(=O)[C@H](C)NC1=O) [Cyclo[Leu-His-Asn-Leu-NH-X4-X3-X2-X1-CO-Thr-Glu-Arg-Met-Ala] of example 3]
Reply: 5.00 to 6.00
